System: DeltatarO mutant
assayProcedure: S. aureus survival, RN4220 and DeltatarO strains – OD600, teichoic acid synthesis inhibitors, primary screen (AID 463173)
details: S. aureus RN4220 wild type/DeltatarO growth, OD600, 18 h, stronger effect = lower value, screened at 18.75 µg/mL (by protocol)
Among all 52,000 compounds or so, about 4,300 (8.3%) were called active. This excerpt belongs to a sample that is enriched for actives.
Reported survival is given for each of the following molecules.
Numbers only here, please. The scale is %.

Recorded survival, per entry:
1) Cc1ccc(C)c(NC(=O)CCn2nc(C)c3c(C)n(-c4ccccc4)nc3c2=O)c1 ... 37
2) COc1cccc(CNC(=O)CCn2nc(C)c3c(C)n(-c4ccccc4)nc3c2=O)c1 ... 83
3) COc1cc(C(CC(=O)NCc2ccccc2)N2Cc3ccccc3C2=O)cc(OC)c1OC (stereo not given) ... 135
4) COc1cc(OC)c(NC(=O)CCCn2nc(C)c3c(C)n(-c4ccccc4)nc3c2=O)cc1Cl ... 32

Proceed to the following item.
Prompt: Given the entry Cc1ccc(NC(=O)CCCn2nc(C)c3c(C)n(-c4ccccc4)nc3c2=O)c(Cl)c1 , report its measured survival.
Completion: 89
